Origin of the recorded values: PubChem BioAssay (NCI)

# Test system: MDA-MB-468 breast
# assay-info: NCI-60 one-dose screen, 48 h (100 = growth as untreated, 0 = no growth, -100 = all killed)
# assay-conditions: 10 µM
This is part of a sample that, as a whole, favours compounds with a hit. Of some 83,000 tested, about 20% had one in any assay. Activity calls are given as the source filed them. How the source made its calls: active means growth percent below 10; inactive means the rest.
Give growth for every item shown.

Answered examples (3):
molecule=COC[C@@H](CC(C)C)N=C1NC(=O)/C(=C/c2ccc3ncsc3c2)N1 assayed_system="MDA-MB-468 breast" value_reported="-17.8% (active)"
molecule=Cn1cc(/C=N/Nc2ccnc3cc(Cl)ccc23)c2ccccc21 assayed_system="MDA-MB-468 breast" value_reported="-83.5% (active)"
molecule=COc1cccc2nc(Nc3ccc(F)c(NC(=O)c4ccc(CN5CCN(C)CC5)c(C(F)(F)F)c4)c3)ccc12 assayed_system="MDA-MB-468 breast" value_reported="-48.9% (active)"

For the 3 molecules below, give their growth values.
1. CONC[C@]1(C)C=C2C(=O)[C@](C)(O)C3(CC3)C(C)=C2[C@H]1O
2. O=C1NC(=NC23CC4CC(CC(C4)C2)C3)N/C1=C\c1ccc2ncccc2n1
3. COc1ccc(-c2cc(-c3cc(C(=O)c4ccc(Br)cc4)n4ccc(C)cc34)nc(N)c2C#N)cc1

Marked response:
1. -90.8% (active)
2. -63% (active)
3. 24.3% (inactive)

###

Give growth for every item shown.
# Test system: NCI-H322M lung
# assay-info: NCI-60 one-dose screen, 48 h (100 = growth as untreated, 0 = no growth, -100 = all killed)
# assay-conditions: 10 µM
# Method: Growth inhibition of the NCI-H322M human Non-Small Cell Lung tumor cell line is measured as a screen for anti-cancer activity. Cells are grown in 96 well plates and exposed to the test compound for 48 hours. Compounds are tested at a single concentration, which is 10^-5 M for most compounds. The reported endpoint is percent growth (GI% or GIPRCNT), where numbers from 0 - 100% represent growth inhibition, and numbers from -100% - 0 represent cell death. […]
This is part of a sample that, as a whole, favours compounds with a hit. Of some 83,000 tested, about 20% had one in any assay.
One number for each entry, in %.

Answered examples (8):
entry_smiles=Cc1ccc(/C=C/C(=O)c2ccc(NC(=O)CSc3nnc(-c4c[nH]c5ccccc45)n3-c3ccccc3)cc2)cc1 measured_endpoint=growth value_reported=92.8
entry_smiles=C=CC(=O)Nc1nc(-c2cccc(NS(=O)(=O)c3cccc4c(N(C)C)cccc34)c2)cs1 measured_endpoint=growth value_reported=56.2
entry_smiles=COc1cc2c3c(n(CCCn4ccnc4)c(=O)c2cc1OC)-c1nc2c(cc1C3=O)OCO2 measured_endpoint=growth value_reported=71.6
entry_smiles=O=C1Nc2ccc(F)cc2/C1=C/c1cccc(OCc2ccccc2)c1 measured_endpoint=growth value_reported=47.6
entry_smiles=Brc1ccc(/C=N/Nc2ncnc3sc4c(c23)CCN(Cc2ccccc2)C4)cc1 measured_endpoint=growth value_reported=94.1
entry_smiles=CCOc1ccc(/C=N/NC(=O)Cn2nc(Cc3ccccc3)c3onc(C)c3c2=O)cc1 measured_endpoint=growth value_reported=50.5
entry_smiles=COc1ccc(/C=C/C(=O)c2ccc(N3CCN(C)CC3)cc2)c(C(F)(F)F)c1 measured_endpoint=growth value_reported=76.5
entry_smiles=CCCCSc1nc(Nc2ccc(/C(C)=N/NC(N)=S)cc2)c(C#N)c(-c2ccccc2)n1 measured_endpoint=growth value_reported=59

Exam item: What does the data say about its growth? Entry: COc1ccc(NC(=O)Nc2ccc(OCC(=O)N=Nc3c(O)[nH]c4ccc([N+](=O)[O-])cc34)cc2)cc1
Marked response: 91.2
